Origin of measurements: PubChem BioAssay (NCI)

Kindly supply the reported growth values for the records listed here.
tested on: CCRF-CEM leukemia; assay: NCI-60 one-dose screen, 48 h (100 = growth as untreated, 0 = no growth, -100 = all killed); settings: 10 µM unless noted
About 83,000 compounds went through this panel and 20% of them were active in at least one assay; those are over-represented in the sample as a whole. Active and inactive are the calls of the source. Rule for the calls: active = growth percent below 10; inactive = the rest.

Challenge: Would you kindly share the measured growth for COc1cc2c(c(OC)c1OC)C(=O)/C(=C/c1cc(C)c(O)c(C)c1)S2 ?
Response given: 25% (inactive)

Challenge: Would you kindly share the measured growth for COc1cc(-c2ccc(N=Nc3c(O)c(C(=O)Nc4ccccc4OC)cc4ccccc34)c(OC)c2)ccc1N=Nc1c(O)c(C(=O)Nc2ccccc2OC)cc2ccccc12 ?
Response given: 9.35% (active)

Challenge: Would you kindly share the measured growth for COc1ccc(/C=C2\COc3ccc(O)c(O)c3C2=O)c(OC)c1 ?
Response given: 4.18% (active)

Challenge: Would you kindly share the measured growth for O=C(CCl)N1c2cccc3cccc(c23)N(C(=O)CCl)C1c1cn(-c2ccccc2)nc1-c1cccc([N+](=O)[O-])c1 ?
Response given: 8.63% (active)

Challenge: Would you kindly share the measured growth for C=C1c2c(C)nn(-c3ccc(O)cc3)c2N(C)C23C[C@@H]1C1(C)c4c(C)nn(-c5ccc(O)cc5)c4N(C)C(C)(C[C@H]12)C3 (stereo partly drawn) ?
Response given: 4.13% (active)

Challenge: Would you kindly share the measured growth for CCNCCNc1cc(C2CCCC2)c(C#N)c2nc3ccccc3n12 ?
Response given: -8.07% (active)

Challenge: Would you kindly share the measured growth for Cc1c(C(N)=O)sc2nc(C)n(/N=c3\scc(-c4ccccc4)n3Cc3ccccc3)c(=O)c12 ?
Response given: -12.2% (active)

Challenge: Would you kindly share the measured growth for Cc1nn(-c2ccccc2)c2c1C(c1ccc([N+](=O)[O-])cc1)C(C#N)=C(N)O2 (stereo not drawn) ?
Response given: 90.3% (inactive)

* * *

system: A549/ATCC NSCLC; experiment: NCI-60 one-dose screen, 48 h; conditions: 10 µM unless noted
Compounds without any hit were thinned out: in the full panel of roughly 83,000, 20% have a hit. The source made the active and inactive calls. The calls were made as follows: active = growth percent below 10; inactive = the rest.
Give your call using only these classes: active, inactive

Challenge: Each compound tested received a call. Report the one for CCCCNC(=O)NS(=O)(=O)c1ccc(N2N=C(c3ccc(C)cc3C)CC2c2ccc(N(C)C)cc2)cc1 (stereo not drawn) .
Response given: inactive

Challenge: Each compound tested received a call. Report the one for CCN(CC)CCCC(C)NCc1ccccc1 (stereo not drawn) .
Response given: inactive

Challenge: Each compound tested received a call. Report the one for NC(=Nc1ccc(N)cc1)C(N)=Nc1ccc(N)cc1 .
Response given: inactive

Challenge: Each compound tested received a call. Report the one for COc1cc(/C=C/c2nc(Nc3ccc(S(=O)(=O)Nc4cc(C)on4)cc3)c3ccccc3n2)ccc1O .
Response given: inactive

Challenge: Each compound tested received a call. Report the one for O=S(=O)(NCCNc1cc(-c2c(-c3cccc(O)c3)nc3sccn23)ccn1)c1ccc(Br)cc1 .
Response given: inactive

Challenge: Each compound tested received a call. Report the one for O=C(c1ccccc1)c1ccc(Cl)c([N+](=O)[O-])c1 .
Response given: inactive

Challenge: Each compound tested received a call. Report the one for CCC(O)(C(c1ccccc1)c1ccccn1)C(c1ccccc1)c1ccccn1 (stereo not drawn) .
Response given: inactive

Challenge: Each compound tested received a call. Report the one for CCNCCNc1cc(-c2ccc(C(F)(F)F)cc2)c(C#N)c2nc3cc(Cl)c(Cl)cc3n12 .
Response given: active

Challenge: Each compound tested received a call. Report the one for O=C(NC(=S)Nc1ccc(-c2nc3ccccc3[nH]2)cc1)c1ccc2ccccc2c1 .
Response given: inactive

Challenge: Each compound tested received a call. Report the one for C[C@H]1[C@H]2C3=CC[C@@H]4[C@@]5(C)C/C(=C/c6ccncc6)C(=O)C(C)(C)[C@@H]5CC[C@@]4(C)[C@]3(C)CC[C@@]2(C(=O)N2CCN(C)CC2)CC[C@@H]1C .
Response given: inactive

Challenge: Each compound tested received a call. Report the one for COc1cc2c(cc1OC)-c1ccc3cc4c(cc3c1N(CCCn1ccnc1)C2)OCO4 .
Response given: inactive

Challenge: Each compound tested received a call. Report the one for Cc1cc(-c2noc(C(F)(F)F)n2)ccc1N1CCN(c2cc(C(=O)N(C)C)no2)CC1 .
Response given: inactive

Challenge: Each compound tested received a call. Report the one for O=C(Nc1ccccc1)c1sc(-c2cccc(C(F)(F)F)c2)cc1O .
Response given: inactive

Challenge: Each compound tested received a call. Report the one for COc1ccc(/C=C(\C#N)n2nnc3cc(F)c(F)cc32)c(OC)c1OC .
Response given: inactive

Challenge: Each compound tested received a call. Report the one for C#CC[C@H](N)C(=O)O .
Response given: inactive

Challenge: Each compound tested received a call. Report the one for CNC(=O)c1cc(Oc2ccc3nc(NC(=O)Nc4cc(C(F)(F)F)cc(C(F)(F)F)c4)sc3c2)ccn1 .
Response given: active

Challenge: Each compound tested received a call. Report the one for C=C1C(=O)O[C@H]2[C@H]1CC/C(Cn1cc(CNCCc3c[nH]c4ccccc34)nn1)=C\CC[C@@]1(C)O[C@@H]21 .
Response given: inactive

Challenge: Each compound tested received a call. Report the one for Cc1nc(Nc2ccccn2)sc1C(=O)/C=C/c1ccc(Br)cc1 .
Response given: inactive

Challenge: Each compound tested received a call. Report the one for CC(c1ccc(-n2cccn2)cc1)c1cnc(N2CCc3ccc(C(N)=O)cc3C2)s1 (stereo not drawn) .
Response given: inactive

Challenge: Each compound tested received a call. Report the one for COC1(CC[C@@H](C)COC2OC(CO)C(O)C(O)C2O)O[C@H]2C[C@H]3[C@@H]4CC=C5C[C@@H](OC6OC(CO)C(OC7OC(C)C(O)C(O)C7O)C(O)C6OC6OC(C)C(O)C(O)C6O)CC[C@]5(C)[C@H]4CC[C@]3(C)[C@H]2[C@@H]1C (stereo partly drawn) .
Response given: active

Challenge: Each compound tested received a call. Report the one for COc1cc(C(=O)/C=C/c2c(C(F)(F)F)nc3ccccn23)cc(OC)c1OC .
Response given: active

Challenge: Each compound tested received a call. Report the one for N#Cc1c(Oc2ccc([N+](=O)[O-])cc2)nc2sc3cc(Cl)ccc3n2c1=N .
Response given: inactive

Challenge: Each compound tested received a call. Report the one for CCn1c(Sc2nnc(Nc3ccccc3)s2)nc2c1c(=O)n(C)c(=O)n2C .
Response given: inactive

Challenge: Each compound tested received a call. Report the one for O=C1Nc2ccccc2/C1=N/N=C/c1ccc(OC2OC(CO)C(O)C(O)C2O)cc1 (stereo not drawn) .
Response given: inactive

Challenge: Each compound tested received a call. Report the one for Clc1ccc(/C=C/c2nc(Nc3ccc(Cl)cc3)c3ccccc3n2)cc1 .
Response given: inactive

Challenge: Each compound tested received a call. Report the one for O=C1c2ccccc2C2(c3ccc(O)cc3)c3ccccc3Oc3cccc1c32 (stereo not drawn) .
Response given: inactive

Challenge: Each compound tested received a call. Report the one for O=C1CSC(c2ccccc2O)N1c1nnc(Cn2cnnc2)o1 (stereo not drawn) .
Response given: inactive

Challenge: Each compound tested received a call. Report the one for CC(=O)Nc1cccc(C2=CC(c3ccc(C)cc3)n3ncnc3N2)c1 (stereo not drawn) .
Response given: inactive

Challenge: Each compound tested received a call. Report the one for Cn1nnnc1-c1ccc(N)cc1 .
Response given: inactive

Challenge: Each compound tested received a call. Report the one for Cc1ccc(S(=O)(=O)N(CC[C@@H]2C[C@H]2c2cc3ccccc3o2)C(=O)NC2CCCCC2)cc1 .
Response given: inactive

Challenge: Each compound tested received a call. Report the one for CC1(C)N=C(N)N=C(N)N1c1ccc(Cl)c(Cl)c1 .
Response given: inactive

Challenge: Each compound tested received a call. Report the one for c1ccc2c(c1)ncn2-c1nc2ccccc2n2c1nc1ccccc12 .
Response given: inactive

Challenge: Each compound tested received a call. Report the one for CC(C)OC(=O)NNC(=O)c1ccncc1 .
Response given: inactive

Challenge: Each compound tested received a call. Report the one for CC(=O)OCCc1ccccc1 .
Response given: inactive

Challenge: Each compound tested received a call. Report the one for Cc1nc(Nc2ccc(NC(=S)Nc3ccccc3)cc2)nc2nc(SCc3ccccc3)[nH]c(=O)c12 .
Response given: inactive

Challenge: Each compound tested received a call. Report the one for Cc1nc(Nc2cccc(NC(=O)Nc3ccc(Cl)cc3)c2)c2ccccc2n1 .
Response given: inactive

Challenge: Each compound tested received a call. Report the one for CC[C@]1(O)C[C@H]2CN(CCc3c([nH]c4ccccc34)[C@@](C(=O)OC)(c3cc4c(cc3OC)N(C=O)[C@H]3[C@@](O)(C(=O)OC)[C@H](OC(C)=O)[C@]5(CC)C=CCN6CC[C@]43[C@@H]65)C2)C1 .
Response given: inactive

Challenge: Each compound tested received a call. Report the one for O=C(Nc1ccccn1)[C@H](O)[C@@H](O)C(=O)N1CCOCC1 .
Response given: inactive
